Quick list: binding signal per entry.
- target system: T1, RBFOX1 RRM (Homo sapiens, UniProt Q9NWB1 109-208)
- T1 sequence: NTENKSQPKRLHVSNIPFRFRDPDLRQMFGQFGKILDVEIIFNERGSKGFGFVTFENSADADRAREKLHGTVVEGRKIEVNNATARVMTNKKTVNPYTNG
- test details: EMSA; HiTS-Eq, 1 nM pool, 10 min; buffer printed only for the single-RNA assays: 10 mM Tris pH 7.5, 150 mM NaCl, 3.4 mM EDTA, 0.001% NP-40, 30 C
- recorded conditions: tags: His6 N-terminal (pET28a); label: 5' 32P
The full ranking holds about 16,000 sequences; the median of “ka relative to ugcaugu” is about 0.0091, and the highest 2% start at about 0.032. This excerpt belongs to a sample that is enriched for the highest values.

Some binders with recorded binding signal:
UGGCCUG (DNA:RNA) RNA: GGGAGACCGGAAUUCAGAUUGUCCUGGCCUGUUAAAUCCCGUCGUAGCCACCA DNA 1: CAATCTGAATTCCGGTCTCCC DNA 2: TGGTGGCTACGACGGGATT; 0.0426 KA relative to UGCAUGU
GUAAUGA (DNA:RNA) RNA: GGGAGACCGGAAUUCAGAUUGUCCGUAAUGAUUAAAUCCCGUCGUAGCCACCA DNA 1: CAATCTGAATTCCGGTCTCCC DNA 2: TGGTGGCTACGACGGGATT; 0.0136 KA relative to UGCAUGU
CGGGUGC (DNA:RNA) RNA: GGGAGACCGGAAUUCAGAUUGUCCCGGGUGCUUAAAUCCCGUCGUAGCCACCA DNA 1: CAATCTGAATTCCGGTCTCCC DNA 2: TGGTGGCTACGACGGGATT; 0.0369 KA relative to UGCAUGU
AGGGUGC (DNA:RNA) RNA: GGGAGACCGGAAUUCAGAUUGUCCAGGGUGCUUAAAUCCCGUCGUAGCCACCA DNA 1: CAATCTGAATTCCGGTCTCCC DNA 2: TGGTGGCTACGACGGGATT; 0.0198 KA relative to UGCAUGU
GGGAUGA (DNA:RNA) RNA: GGGAGACCGGAAUUCAGAUUGUCCGGGAUGAUUAAAUCCCGUCGUAGCCACCA DNA 1: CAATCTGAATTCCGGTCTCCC DNA 2: TGGTGGCTACGACGGGATT; 0.0379 KA relative to UGCAUGU

Ask: Entry ACUCGCA (DNA:RNA) RNA: GGGAGACCGGAAUUCAGAUUGUCCACUCGCAUUAAAUCCCGUCGUAGCCACCA DNA 1: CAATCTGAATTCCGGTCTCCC DNA 2: TGGTGGCTACGACGGGATT has what binding signal?
Reply: 0.0123 KA relative to UGCAUGU

Ask: Entry GGGGUGC (DNA:RNA) RNA: GGGAGACCGGAAUUCAGAUUGUCCGGGGUGCUUAAAUCCCGUCGUAGCCACCA DNA 1: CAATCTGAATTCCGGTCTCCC DNA 2: TGGTGGCTACGACGGGATT has what binding signal?
Reply: 0.0467 KA relative to UGCAUGU

Ask: Entry GGCGCCU (DNA:RNA) RNA: GGGAGACCGGAAUUCAGAUUGUCCGGCGCCUUUAAAUCCCGUCGUAGCCACCA DNA 1: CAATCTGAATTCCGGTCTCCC DNA 2: TGGTGGCTACGACGGGATT has what binding signal?
Reply: 0.00816 KA relative to UGCAUGU

Ask: Entry GGAAUGA (DNA:RNA) RNA: GGGAGACCGGAAUUCAGAUUGUCCGGAAUGAUUAAAUCCCGUCGUAGCCACCA DNA 1: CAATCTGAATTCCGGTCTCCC DNA 2: TGGTGGCTACGACGGGATT has what binding signal?
Reply: 0.0487 KA relative to UGCAUGU

Ask: Entry CCGGUGC (DNA:RNA) RNA: GGGAGACCGGAAUUCAGAUUGUCCCCGGUGCUUAAAUCCCGUCGUAGCCACCA DNA 1: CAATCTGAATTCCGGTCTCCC DNA 2: TGGTGGCTACGACGGGATT has what binding signal?
Reply: 0.0149 KA relative to UGCAUGU

Ask: Entry GACAUUG (DNA:RNA) RNA: GGGAGACCGGAAUUCAGAUUGUCCGACAUUGUUAAAUCCCGUCGUAGCCACCA DNA 1: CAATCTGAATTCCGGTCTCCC DNA 2: TGGTGGCTACGACGGGATT has what binding signal?
Reply: 0.0146 KA relative to UGCAUGU

Ask: Entry UGGCCGA (DNA:RNA) RNA: GGGAGACCGGAAUUCAGAUUGUCCUGGCCGAUUAAAUCCCGUCGUAGCCACCA DNA 1: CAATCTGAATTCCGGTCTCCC DNA 2: TGGTGGCTACGACGGGATT has what binding signal?
Reply: 0.0244 KA relative to UGCAUGU
